Source of measurements: PubChem BioAssay (NCI)

- Test system: KM12 colon
- ASSAY INFO: NCI tumour cell line growth inhibition, 48 h
READOUT: GI50

[in] Supply recorded GI50 for `O=C(c1ccc2ccccc2c1)c1c(C(F)(F)F)n([O-])c2ccc(Cl)cc2[n+]1=O` here.
[out] 1080 nM

---
[in] Supply recorded GI50 for `O=c1c2c3c(sc2n2c(-c4cc(-c5ccccc5)nn4-c4ccccc4)nnc2n1Cc1ccccc1)CCCC3` here.
[out] > 100000 nM

[in] Supply recorded GI50 for `CCC(=C(c1ccc(OCCCN(C)C)cc1)c1ccc(OCCCN(C)C)cc1)c1ccc(Cl)cc1` here.
[out] 1260 nM

[in] Supply recorded GI50 for `Cn1cc(-c2csc(-c3cn(C)c4ccccc34)n2)c2cnccc21` here.
[out] 1000 nM

[in] Supply recorded GI50 for `CC(=O)[CH-]C(C)=O.[CH2-]C.[CH2-]C.[Tl+3]` here.
[out] > 100000 nM
